Listed here: items and their measured IC50.
# system.under.test: HSP60/HSP10 (Homo sapiens, UniProt P10809)
# Sequence (P10809 whole entry): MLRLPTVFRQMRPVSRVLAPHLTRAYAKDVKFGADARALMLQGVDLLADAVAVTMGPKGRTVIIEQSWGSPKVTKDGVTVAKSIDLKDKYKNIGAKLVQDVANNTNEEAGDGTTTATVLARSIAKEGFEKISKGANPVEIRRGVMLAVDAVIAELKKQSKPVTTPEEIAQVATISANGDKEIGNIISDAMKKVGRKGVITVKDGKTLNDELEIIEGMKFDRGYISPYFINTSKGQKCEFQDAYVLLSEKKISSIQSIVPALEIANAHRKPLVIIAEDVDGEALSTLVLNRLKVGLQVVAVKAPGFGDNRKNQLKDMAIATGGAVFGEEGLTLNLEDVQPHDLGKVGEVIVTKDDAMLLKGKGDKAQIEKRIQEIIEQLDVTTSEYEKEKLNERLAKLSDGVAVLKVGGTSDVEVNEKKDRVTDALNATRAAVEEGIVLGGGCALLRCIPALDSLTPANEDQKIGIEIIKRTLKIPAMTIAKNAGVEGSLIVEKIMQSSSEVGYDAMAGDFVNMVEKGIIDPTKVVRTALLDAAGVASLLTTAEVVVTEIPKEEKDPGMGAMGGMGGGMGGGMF
# Sequence (P61604 whole entry, further chain): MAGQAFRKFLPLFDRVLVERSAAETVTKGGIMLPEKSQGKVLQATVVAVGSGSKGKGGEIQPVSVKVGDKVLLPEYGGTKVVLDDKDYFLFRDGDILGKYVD
# experiment.description: Inhibition of human mitochondrial HSP60/HSP10 expressed in Escherichia coli DH5alpha/BL21 (DE3) assessed as inhibition of denatured MDH refolding preincubated for 10 mins followed by ATP addition measured after 40 to 60 mins by fluorescence based assay

In [3]: df
Out[3]:
                           smiles_structure                         system_under_test  reported_measurement
0  COC(=O)c1ccccc1S(=O)(=O)Nc1ccc(-c2nc3cc(NS(=O)(=O)c4ccccc4C(=O)OC)ccc3o2)cc1  HSP60/HSP10 (Homo sapiens, UniProt P10809)              > 100 µM
1  O=S(=O)(Nc1ccc(-c2nc3cc(NS(=O)(=O)c4ccccc4Br)ccc3o2)cc1)c1ccccc1Br  HSP60/HSP10 (Homo sapiens, UniProt P10809)              > 100 µM

Answer with the recorded IC50 of O=C(O)c1ccc(S(=O)(=O)Nc2ccc(-c3nc4cc(NS(=O)(=O)c5ccc(C(=O)O)cc5)ccc4o3)cc2)cc1 only.
> 100 µM

All figures here come from ChEMBL document CHEMBL3856280.
